Method Notes: Half life time in human plasma
Type: ADME, cell-free
Measurement Type: half-life (h)
Unit h implied. Number only.

>>> test_result("CCN(CC)C(=O)c1cccc(-c2ccc3c(c2)C[C@H]2[C@H]3[C@@H](CCCCC(=N)N)C(=O)N2C(=O)OC)c1")
24

// below: half-life requested for another molecule
Reported half-life ( CCN(CC)C(=O)c1cccc(-c2ccc3c(c2)[C@@H]2[C@@H](CCCCC(=N)N)C(=O)N(C(=O)OC)[C@H]2C3)c1 ) = 17

* * *

Measurement Target: Coagulation factor X (Homo sapiens)
Sequence (P00742 41-179 limits assumed): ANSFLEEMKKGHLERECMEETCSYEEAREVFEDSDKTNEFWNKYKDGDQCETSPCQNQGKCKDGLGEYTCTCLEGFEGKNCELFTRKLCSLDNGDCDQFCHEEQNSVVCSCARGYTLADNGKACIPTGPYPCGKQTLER
Sequence (P00742 235-488 limits assumed): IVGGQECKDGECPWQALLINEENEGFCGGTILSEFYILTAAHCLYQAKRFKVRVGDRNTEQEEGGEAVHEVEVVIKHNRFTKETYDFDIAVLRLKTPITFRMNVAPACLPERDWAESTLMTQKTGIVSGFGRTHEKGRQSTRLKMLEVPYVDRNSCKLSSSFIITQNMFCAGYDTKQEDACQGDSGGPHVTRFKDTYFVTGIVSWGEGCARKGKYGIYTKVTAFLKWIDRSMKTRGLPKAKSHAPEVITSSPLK
Define the label as satisfied when IC50 is strictly less than 10 µM and as not satisfied in all remaining cases.

>>> group_label("CCN(CC)C(=O)c1cccc(-c2ccc3c(c2)C[C@H]2[C@H]3[C@@H](CCCCC(=N)N)C(=O)N2C(=O)OC)c1")
"satisfied"
>>> group_label("CCN(CC)C(=O)c1cccc(-c2ccc3c(c2)[C@@H]2[C@@H](CCCCC(=N)N)C(=O)N(CCCCCc4ccccc4)[C@H]2C3)c1")
"not satisfied"

Task: Determine if CCN(CC)C(=O)c1cccc(-c2ccc3c(c2)[C@@H]2[C@@H](CCCCC(=N)N)C(=O)N(S(=O)(=O)c4ccccc4)[C@H]2C3)c1 shows IC50 strictly lower than 10 µM.
Output: satisfied

Task: Determine if CCN(CC)C(=O)c1cccc(-c2ccc3c(c2)[C@@H]2[C@@H](CCCCC(=N)N)C(=O)N(COC(C)=O)[C@H]2C3)c1 shows IC50 strictly lower than 10 µM.
Output: not satisfied

Task: Determine if N=C(N)CCCC[C@H]1C(=O)N(CCCCCc2ccccc2)[C@H]2Cc3ccccc3[C@H]12 shows IC50 strictly lower than 10 µM.
Output: not satisfied

Task: Determine if CCOP(=O)(OCC)N1C(=O)[C@H](CCCCC(=N)N)[C@H]2c3ccc(-c4cccc(C(=O)N(CC)CC)c4)cc3C[C@@H]21 shows IC50 strictly lower than 10 µM.
Output: not satisfied

Task: Determine if CCNC(=O)N1C(=O)[C@H](CCCCC(=N)N)[C@H]2c3cc(-c4cccc(C(=O)N(CC)CC)c4)ccc3C[C@@H]21 shows IC50 strictly lower than 10 µM.
Output: not satisfied

Task: Determine if CCN(CC)C(=O)c1cccc(-c2ccc3c(c2)[C@@H]2[C@@H](CCCCC(=N)N)C(=O)N(C(=O)N(C)C)[C@H]2C3)c1 shows IC50 strictly lower than 10 µM.
Output: not satisfied

* * *

Measurement Target: Serine protease 1 (Homo sapiens, UniProt P07477)
Sequence (P07477 whole entry): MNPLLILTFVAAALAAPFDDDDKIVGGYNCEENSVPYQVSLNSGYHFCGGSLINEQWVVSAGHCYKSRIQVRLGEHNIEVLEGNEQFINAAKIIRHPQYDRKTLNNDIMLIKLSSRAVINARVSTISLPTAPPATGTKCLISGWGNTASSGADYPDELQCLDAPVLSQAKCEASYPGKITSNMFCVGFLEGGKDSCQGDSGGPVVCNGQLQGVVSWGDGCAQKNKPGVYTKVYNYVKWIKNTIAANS
Measurement Type: pIC50
# log scale: pIC50 equals minus log10 of the concentration in mol/L

>>> test_result("CCN(CC)C(=O)c1cccc(-c2ccc3c(c2)[C@@H]2[C@@H](CCCCC(=N)N)C(=O)N(C(=O)OCCCc4ccccc4)[C@H]2C3)c1")
5.64

Reported pIC50 ( CCN(CC)C(=O)c1cccc(-c2ccc3c(c2)[C@@H]2[C@@H](CCCCC(=N)N)C(=O)N(S(=O)(=O)c4ccccc4)[C@H]2C3)c1 ) = 7.18

* * *

Record type: pIC50 measurement. Applies to: Serine protease 1 (Homo sapiens)
pIC50: −log10 of the molar value.

Use the examples below as a reference point.
>>> test_result("N=C(N)CCCC[C@H]1C(=O)N[C@H]2Cc3ccccc3[C@@H]21")
"< 3.70"
>>> test_result("COC(=O)CN1C(=O)[C@H](CCCCC(=N)N)[C@H]2c3ccccc3C[C@@H]21")
"< 3.70"

// below: pIC50 requested for another molecule
Item CCNC(=O)N1C(=O)[C@H](CCCCC(=N)N)[C@H]2c3cc(-c4cccc(C(=O)N(CC)CC)c4)ccc3C[C@@H]21 ; assay system Serine protease 1 (Homo sapiens); pIC50 reported as < 4.00
